Sourced from patent US20250250357A1

Form field: OD450 (one value per entry).
# studyTarget: T1, human MSLN-hFc protein (Acro, Cat. No. MSN-H5253) (human, UniProt Q13421 296-580)
# T1 construct: the method names the coated protein as human MSLN-hFc (Acro); also called human MSLN full-length protein
# T1 sequence (Q13421 other isoform, or with tags, fused parts or gaps limits assumed): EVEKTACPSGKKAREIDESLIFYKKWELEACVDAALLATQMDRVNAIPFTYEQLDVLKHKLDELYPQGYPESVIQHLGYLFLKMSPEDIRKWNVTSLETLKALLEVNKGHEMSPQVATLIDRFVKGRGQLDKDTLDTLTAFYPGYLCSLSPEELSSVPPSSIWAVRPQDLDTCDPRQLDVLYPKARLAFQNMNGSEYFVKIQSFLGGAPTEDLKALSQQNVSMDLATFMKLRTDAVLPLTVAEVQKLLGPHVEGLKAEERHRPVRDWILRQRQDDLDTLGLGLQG
# procedureDetails: ELISA on coated antigen, antibody 10 nM
Note to self: number, then unit, no commentary.

Answered cases to consult:
binder: F7.44.20-H12 (scFv, not shown: small tags and cut ends, also called S009-F7.44.20 humanized antibody VH2 + VL4) scFv: EVQLVQSGAEVKKPGASVKVSCKASGYTFTDYNMDWVRQAPGQGLEWMGDINPSTGGTIYNQKFNGRVTMTEDKSASTVYMELSSLRSEDTAVYYCARRRIGTGYFDVWGQGTTVTVSSGGGGSGGGGSGGGGSEIVLTQSPATLSLSPGERATLSCSASSSVISSYLSWYQQKPGSSPRLLIYRTSNLASGIPARFSGSGSGTDYTLTISSLEPEDFAVYYCHQWSSFPYTFGGGTKVEIK
OD450: 2.92 OD450
//
binder: F7.44.20-VL-VH (scFv, not shown: small tags and cut ends, also called S009-F7.44.20 parental variable regions, VL-VH order) scFv: QIVLTQSPALMSASPGEKVTLTCSASSSVISSYLSWYQQKPGSSPKLLIYRTSNLASGVPARFSGSGSGTSYSLTISSMEAEDAASYFCHQWSSFPYTFGGGTKLEIKGGGGSGGGGSGGGGSEVQLQQSGPELVKPGASVKIPCKASGYTFTDYNMDWVKQSHGKSLEWIGDINPSTGGTIYNQKFNGKATLTEDKSASTVYMEFRSLTSDDTAVYYCARRRIGTGYFDVWGTGTTVTVSS
OD450: 2.14 OD450
//
binder: F7.44.20-H16 (scFv, not shown: small tags and cut ends, also called S009-F7.44.20 humanized antibody VH2a + VL4) scFv: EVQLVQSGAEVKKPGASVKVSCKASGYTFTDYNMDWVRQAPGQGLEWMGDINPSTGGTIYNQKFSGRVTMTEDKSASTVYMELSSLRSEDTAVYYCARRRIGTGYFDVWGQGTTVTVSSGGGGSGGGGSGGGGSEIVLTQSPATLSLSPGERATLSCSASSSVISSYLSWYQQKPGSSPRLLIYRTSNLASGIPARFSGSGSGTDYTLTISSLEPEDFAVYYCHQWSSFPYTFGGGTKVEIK
OD450: 2.4 OD450

Problem: Supply recorded OD450 for F7.44.20-H8 (scFv, not shown: small tags and cut ends, also called S009-F7.44.20 humanized antibody VH1a + VL4) scFv: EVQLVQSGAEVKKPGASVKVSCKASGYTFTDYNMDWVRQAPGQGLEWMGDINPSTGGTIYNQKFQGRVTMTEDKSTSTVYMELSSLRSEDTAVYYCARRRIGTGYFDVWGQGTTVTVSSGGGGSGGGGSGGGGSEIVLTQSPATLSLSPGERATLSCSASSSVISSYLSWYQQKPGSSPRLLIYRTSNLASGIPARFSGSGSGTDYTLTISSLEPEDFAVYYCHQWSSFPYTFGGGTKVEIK here.
Solution: 2.55 OD450
